Biological target: HLA-A*02:01 (peptide-receptive MHC class I molecule, heavy chain with beta-2-microglobulin) (human)
Test: UV-ligand exchange, anti-b2m ELISA; peptide exchange yield grade (>10% = +; >20% = ++; >50 = +++; >75% = ++++)
Each item that follows carries a reported peptide exchange yield.

Example cases with answers are listed next.
Query block: Give its peptide exchange yield value. Item: AILDVVVNL (synthetic peptide; source gene RFX3) [AILDVVVNL (SEQ ID NO: 10)]
Result block: > 75%

Query block: Give its peptide exchange yield value. Item: ALISEKLETL (synthetic peptide; source gene DNAJC10) [ALISEKLETL (SEQ ID NO: 52)]
Result block: 50 to 75%

Query block: Give its peptide exchange yield value. Item: GLLGGVIMMV (synthetic peptide; source gene SLC39A7) [GLLGGVIMMV (SEQ ID NO: 40)]
Result block: > 75%

Further cases:
Query block: Give its peptide exchange yield value. Item: SLLSDIIAL (synthetic peptide; source gene PIGQ) [SLLSDIIAL (SEQ ID NO: 36)]
Result block: 50 to 75%

Query block: Give its peptide exchange yield value. Item: SLYPGTETM (synthetic peptide; source gene SVIL) [SLYPGTETM (SEQ ID NO: 9)]
Result block: 50 to 75%
